// data source = patent US4895842A

# TARGET_UNDER_TEST: human urokinase (Homo sapiens, UniProt P00749)
# METHOD_NOTES: biochemical
# COND: Table 2; S-2444 substrate, pH 8.8, 37° C.; read-out: Urokinase S-2444 (I50)
# Experimental: Determination of inhibition activity for S-2444 decomposition An inhibitor sample is dissolved in a 0.05M Tris-hydrochloric acid buffer solution (pH=8.8) to make the total volume to 400 μl. […] The absorbance of the p-nitroaniline formed in the reaction mixture is measured at 405 nm. Thus, the concentration I50 (μmol) of the inhibitor sample, at which the absorbance is one half (i.e., 1/2) of that obtained in the absence of the inhibitor sample, is determined.
pIC50: −log10 of the molar value.
MEASURED_PARAMETER: pIC50

(I) CC(=O)c1ccc(NC(=O)[C@H](Cc2ccc(OCc3ccccc3)cc2)NC(=O)[C@H]2CC[C@H](CN)CC2)cc1 [Compound No. 3]
(II) CC(=O)c1ccc(NC(=O)[C@H](Cc2ccc(OCc3ccccc3Cl)cc2)NC(=O)[C@H]2CC[C@H](CN)CC2)cc1 [compound 83]
### Prompt Would you mind telling me which has the lower recorded pIC50 between I and II ? In your reply, give the label of the chosen option.
### Response II
(II: 4.24, I: 4.51)
